# Test system: Staphylococcus sp.
# test: In vitro antibacterial evaluation: minimum inhibitory concentration (MIC), broth dilution method
# Format: cell-based
# particulars: strain GC 1131
Provide the reported MIC Staphylococcus aureus (GC 1131) of each item.
Answers are plain numbers, in mg/L.

Reference set, count: 3
CCCCN1CC(C(O)C2NC(=O)C(C(O)C3CNC(=N)N3)NC(=O)C(Cc3ccc(OC4OC(CO)C(OC5OC6COC7(OC6C(O)C5O)C5CC6CC(C5)CC7C6)C(O)C4O)cc3)NC(=O)C(C(C)c3ccccc3)NC(=O)CNC(=O)C(CO)NC2=O)N(C2OC(CO)C(O)C(O)C2O)C1=N (centres unmarked)    4
CC(c1ccc(Cl)cc1)C1NC(=O)CNC(=O)C(CO)NC(=O)C(C(O)C2CNC(=N)N2C2OC(CO)C(O)C(O)C2O)NC(=O)C(C(O)C2CNC(=N)N2)NC(=O)C(Cc2ccc(OC3OC(CO)C(OC4OC5COC(c6ccccc6)OC5C(O)C4O)C(O)C3O)cc2)NC1=O (centres unmarked)    0.5
CC(c1ccccc1)C1NC(=O)CNC(=O)C(CO)NC(=O)C(C(O)C2CNC(=N)N2C2OC(CO)C(O)C(O)C2O)NC(=O)C(C(O)C2CNC(=N)N2)NC(=O)C(Cc2ccc(OC3OC(CO)C(OC4OC(CO)C(O)C5OC(c6ccccc6)OC45)C(O)C3O)cc2)NC1=O (single isomer, unassigned) [Example 104b]    0.5

Batch request: MIC Staphylococcus aureus (GC 1131) per item, same order as input.
1. Cc1ccc(Oc2cccc(C3OCC4OC(OC5C(CO)OC(Oc6ccc(CC7NC(=O)C(C(C)c8ccccc8)NC(=O)CNC(=O)C(CO)NC(=O)C(C(O)C8CNC(=N)N8C8OC(CO)C(O)C(O)C8O)NC(=O)C(C(O)C8CNC(=N)N8)NC7=O)cc6I)C(O)C5O)C(O)C(O)C4O3)c2)cc1 (centres unmarked)
2. CC(c1ccccc1)C1NC(=O)CNC(=O)C(CO)NC(=O)C(C(O)C2CNC(=N)N2C2OC(CO)C(O)C(O)C2O)NC(=O)C(C(O)C2CNC(=N)N2)NC(=O)C(Cc2ccc(OC3OC(CO)C(OC4OC5COC(Cc6ccccc6)OC5C(O)C4O)C(O)C3O)cc2)NC1=O (centres unmarked)

1: 16; 2: 2

---

# Tested on: Enterococcus sp.
# test: In vitro antibacterial evaluation: minimum inhibitory concentration (MIC), broth dilution method
# Type: cell-based
# particulars: strain GC 4558
property measured: MIC Enterococcus avium (GC 4558)
State the result as a value with its unit after it.

CC(c1ccccc1)C1NC(=O)CNC(=O)C(CO)NC(=O)C(C(O)C2CNC(=N)N2C2OC(CO)C(O)C(O)C2O)NC(=O)C(C(O)C2CNC(=N)N2)NC(=O)C(Cc2ccc(OC3OC(CO)C(OC4OC5COC(c6ccc7ccccc7c6)OC5C(O)C4O)C(O)C3O)cc2)NC1=O (centres unmarked)    1 µg/mL

Now consider a different compound.
Give the value of MIC Enterococcus avium (GC 4558) reported for the following: CC(C)=CCCC(C)=CCOc1ccc(C2OCC3OC(OC4C(CO)OC(Oc5ccc(CC6NC(=O)C(C(C)c7ccccc7)NC(=O)CNC(=O)C(CO)NC(=O)C(C(O)C7CNC(=N)N7C7OC(CO)C(O)C(O)C7O)NC(=O)C(C(O)C7CNC(=N)N7)NC6=O)cc5)C(O)C4O)C(O)C(O)C3O2)cc1 (centres unmarked)
2 µg/mL
